Cited source for all entries: ChEMBL document CHEMBL1135601

assay: Biodistribution after day 3 in mouse muscle; format: ADME, organism-based, Muscle tissue
compounds and their reported concentration at 3 day
assay-metric: concentration at 3 day (ng/g)

- CCc1c(CC)c2cc3nc(cc4[nH]c(c(C)c4CC)c4[nH]c(cc5nc(cc1[nH]2)C(CCC(=O)NC1C(O)OC(CO)C(O)C1O)=C5C)c(CC)c4C)C(C)=C3CCC(=O)NC1C(O)OC(CO)C(O)C1O (stereo not drawn): 21000
- CCc1c(CC)c2cc3nc(cc4[nH]c(c(C)c4CC)c4[nH]c(cc5nc(cc1[nH]2)C(CCC(=O)NCCN(CCN)CCN)=C5C)c(CC)c4C)C(C)=C3CCC(=O)NCCN(CCN)CCN: 36000
- CCC1=C(CC)c2cc3[nH]c(cc4[nH]c(c(C)c4CC)c4[nH]c(cc5nc(cc1n2)C(CCC(=O)NCCOCCOCCN)=C5C)c(CC)c4C)c(C)c3CCC(=O)NCCOCCOCCN: 29000

====

Listed here: items and their measured concentration at 3 day.
assay: Biodistribution after day 3 in mouse brain; assay type: ADME, organism-based
assay-metric: concentration at 3 day (ng/g)

* CCC1=C(CC)c2cc3[nH]c(cc4[nH]c(c(C)c4CC)c4[nH]c(cc5nc(cc1n2)C(CCC(=O)NCCOCCOCCN)=C5C)c(CC)c4C)c(C)c3CCC(=O)NCCOCCOCCN | 5000
* CCc1c(CC)c2cc3nc(cc4[nH]c(c(C)c4CC)c4[nH]c(cc5nc(cc1[nH]2)C(CCC(=O)NCCN(CCN)CCN)=C5C)c(CC)c4C)C(C)=C3CCC(=O)NCCN(CCN)CCN | 400
* CCc1c(CC)c2cc3nc(cc4[nH]c(c(C)c4CC)c4[nH]c(cc5nc(cc1[nH]2)C(CCC(=O)NC1C(O)OC(CO)C(O)C1O)=C5C)c(CC)c4C)C(C)=C3CCC(=O)NC1C(O)OC(CO)C(O)C1O (stereo unspecified) | 770
* CCc1c(CC)c2cc3nc(cc4[nH]c(c(C)c4CC)c4[nH]c(cc5nc(cc1[nH]2)C(CCC(=O)N(CCO)CCO)=C5C)c(CC)c4C)C(C)=C3CCC(=O)N(CCO)CCO [SAPPHYRIN] | 270
* CCc1c(CC)c2cc3nc(cc4[nH]c(c(C)c4CC)c4[nH]c(cc5nc(cc1[nH]2)C(CCC(=O)NCCOCCOCCO)=C5C)c(CC)c4C)C(C)=C3CCC(=O)NCCOCCOCCO | 4300
* C=CC1=C(C)c2cc3nc(cc4[nH]c(cc5[nH]c(cc1n2)c(C)c5CCC(=O)NC1C(O)OC(CO)C(O)C1O)c(CCC(=O)NC1C(O)OC(CO)C(O)C1O)c4C)C(C=C)=C3C (stereo unspecified) [PORPHYRIN] | 410

====

assay: Biodistribution after day 3 in mouse blood; assay type: ADME, organism-based
Known concentration at 3 day of a selection of molecules
assay-metric: concentration at 3 day (ng/g)

• C=CC1=C(C)c2cc3nc(cc4[nH]c(cc5[nH]c(cc1n2)c(C)c5CCC(=O)NC1C(O)OC(CO)C(O)C1O)c(CCC(=O)NC1C(O)OC(CO)C(O)C1O)c4C)C(C=C)=C3C (stereo not drawn) = 900
• CCc1c(CC)c2cc3nc(cc4[nH]c(c(C)c4CC)c4[nH]c(cc5nc(cc1[nH]2)C(CCC(=O)NC1C(O)OC(CO)C(O)C1O)=C5C)c(CC)c4C)C(C)=C3CCC(=O)NC1C(O)OC(CO)C(O)C1O (stereo not drawn) = 2000
• CCc1c(CC)c2cc3nc(cc4[nH]c(c(C)c4CC)c4[nH]c(cc5nc(cc1[nH]2)C(CCC(=O)NCCN(CCN)CCN)=C5C)c(CC)c4C)C(C)=C3CCC(=O)NCCN(CCN)CCN = 3400

====

assay: Biodistribution after day 1 in mouse lung; assay type: ADME, organism-based
assay-metric: concentration at 1 day (ng/g)

- CCc1c(CC)c2cc3nc(cc4[nH]c(c(C)c4CC)c4[nH]c(cc5nc(cc1[nH]2)C(CCC(=O)NCCOCCOCCO)=C5C)c(CC)c4C)C(C)=C3CCC(=O)NCCOCCOCCO: 13000
- CCc1c(CC)c2cc3nc(cc4[nH]c(c(C)c4CC)c4[nH]c(cc5nc(cc1[nH]2)C(CCC(=O)NCCN(CCN)CCN)=C5C)c(CC)c4C)C(C)=C3CCC(=O)NCCN(CCN)CCN: 2500
- C=CC1=C(C)c2cc3nc(cc4[nH]c(cc5[nH]c(cc1n2)c(C)c5CCC(=O)NC1C(O)OC(CO)C(O)C1O)c(CCC(=O)NC1C(O)OC(CO)C(O)C1O)c4C)C(C=C)=C3C (stereo not drawn) [PORPHYRIN]: 2000

====

experiment: Biodistribution after day 1 in mouse brain; format: ADME, organism-based
Mark F for concentration at 1 day values under 400 ng/g, and T for everything at or above.

* CCc1c(CC)c2cc3nc(cc4[nH]c(c(C)c4CC)c4[nH]c(cc5nc(cc1[nH]2)C(CCC(=O)NCCOCCOCCO)=C5C)c(CC)c4C)C(C)=C3CCC(=O)NCCOCCOCCO | T
* CCc1c(CC)c2cc3nc(cc4[nH]c(c(C)c4CC)c4[nH]c(cc5nc(cc1[nH]2)C(CCC(=O)NCCN(CCN)CCN)=C5C)c(CC)c4C)C(C)=C3CCC(=O)NCCN(CCN)CCN | T
* CCc1c(CC)c2cc3nc(cc4[nH]c(c(C)c4CC)c4[nH]c(cc5nc(cc1[nH]2)C(CCC(=O)NC1C(O)OC(CO)C(O)C1O)=C5C)c(CC)c4C)C(C)=C3CCC(=O)NC1C(O)OC(CO)C(O)C1O (stereo unspecified) | T
* CCC1=C(CC)c2cc3[nH]c(cc4[nH]c(c(C)c4CC)c4[nH]c(cc5nc(cc1n2)C(CCC(=O)NCCOCCOCCN)=C5C)c(CC)c4C)c(C)c3CCC(=O)NCCOCCOCCN | T
* CCc1c(CC)c2cc3nc(cc4[nH]c(c(C)c4CC)c4[nH]c(cc5nc(cc1[nH]2)C(CCC(=O)N(CCO)CCO)=C5C)c(CC)c4C)C(C)=C3CCC(=O)N(CCO)CCO | F
* C=CC1=C(C)c2cc3nc(cc4[nH]c(cc5[nH]c(cc1n2)c(C)c5CCC(=O)NC1C(O)OC(CO)C(O)C1O)c(CCC(=O)NC1C(O)OC(CO)C(O)C1O)c4C)C(C=C)=C3C (stereo unspecified) | T

====

experiment: Biodistribution after day 3 in mouse tumor; assay type: ADME, organism-based
assay-metric: concentration at 3 day

* CCC1=C(CC)c2cc3[nH]c(cc4[nH]c(c(C)c4CC)c4[nH]c(cc5nc(cc1n2)C(CCC(=O)NCCOCCOCCN)=C5C)c(CC)c4C)c(C)c3CCC(=O)NCCOCCOCCN | 114000 ng/g
* CCc1c(CC)c2cc3nc(cc4[nH]c(c(C)c4CC)c4[nH]c(cc5nc(cc1[nH]2)C(CCC(=O)N(CCO)CCO)=C5C)c(CC)c4C)C(C)=C3CCC(=O)N(CCO)CCO | 220000 ng/g
* C=CC1=C(C)c2cc3nc(cc4[nH]c(cc5[nH]c(cc1n2)c(C)c5CCC(=O)NC1C(O)OC(CO)C(O)C1O)c(CCC(=O)NC1C(O)OC(CO)C(O)C1O)c4C)C(C=C)=C3C (stereo unspecified) | 131000 ng/g
* CCc1c(CC)c2cc3nc(cc4[nH]c(c(C)c4CC)c4[nH]c(cc5nc(cc1[nH]2)C(CCC(=O)NCCOCCOCCO)=C5C)c(CC)c4C)C(C)=C3CCC(=O)NCCOCCOCCO | 130000 ng/g
* CCc1c(CC)c2cc3nc(cc4[nH]c(c(C)c4CC)c4[nH]c(cc5nc(cc1[nH]2)C(CCC(=O)NC1C(O)OC(CO)C(O)C1O)=C5C)c(CC)c4C)C(C)=C3CCC(=O)NC1C(O)OC(CO)C(O)C1O (stereo unspecified) | 66000 ng/g
* CCc1c(CC)c2cc3nc(cc4[nH]c(c(C)c4CC)c4[nH]c(cc5nc(cc1[nH]2)C(CCC(=O)NCCN(CCN)CCN)=C5C)c(CC)c4C)C(C)=C3CCC(=O)NCCN(CCN)CCN | 89000 ng/g

====

experiment: Biodistribution after day 9 in mouse muscle; format: ADME, organism-based, Muscle tissue
concentration at 9 day overview
assay-metric: concentration at 9 day (ng/g)

* CCc1c(CC)c2cc3nc(cc4[nH]c(c(C)c4CC)c4[nH]c(cc5nc(cc1[nH]2)C(CCC(=O)NC1C(O)OC(CO)C(O)C1O)=C5C)c(CC)c4C)C(C)=C3CCC(=O)NC1C(O)OC(CO)C(O)C1O (configuration not stated) | 11000
* C=CC1=C(C)c2cc3nc(cc4[nH]c(cc5[nH]c(cc1n2)c(C)c5CCC(=O)NC1C(O)OC(CO)C(O)C1O)c(CCC(=O)NC1C(O)OC(CO)C(O)C1O)c4C)C(C=C)=C3C (configuration not stated) [PORPHYRIN] | 3600
